Hey, just so you know, these numbers are from ChEMBL document CHEMBL3864135.

Assay: Solubility of the compound in DMSO
Assay type: physicochemical
Readout Label: solubility

[
  {
    "Compound": "CN1CCN(C(=O)CC2c3ccccc3C(=O)N2c2ccc(Cl)cn2)CC1.Cl (stereo unspecified)",
    "solubility": "Soluble"
  },
  {
    "Compound": "Cl.O=C(CC1c2ccccc2C(=O)N1c1ccc([N+](=O)[O-])cn1)N1CCN(c2ccccc2)CC1 (stereo unspecified)",
    "solubility": "Soluble"
  },
  {
    "Compound": "Cc1ccc(N2CCN(C(=O)CC3c4ccccc4C(=O)N3c3ccc([N+](=O)[O-])cn3)CC2)cc1.Cl (stereo unspecified)",
    "solubility": "Insoluble"
  },
  {
    "Compound": "CN1CCN(C(=O)CC2c3ccccc3C(=O)N2c2ccc([N+](=O)[O-])cn2)CC1.Cl (stereo unspecified)",
    "solubility": "Soluble"
  },
  {
    "Compound": "COc1ccc(N2CCN(C(=O)CC3c4ccccc4C(=O)N3c3ccc([N+](=O)[O-])cn3)CC2)cc1.Cl (stereo unspecified)",
    "solubility": "Soluble"
  },
  {
    "Compound": "Cl.O=C(CC1c2ccccc2C(=O)N1c1ccc([N+](=O)[O-])cn1)N1CCN(c2ccc(F)cc2)CC1 (stereo unspecified)",
    "solubility": "Soluble"
  }
]

--- query ---
input: # get_value(readout='solubility', item= CN1CCN(C(=O)CC2c3ccccc3C(=O)N2c2ccc(N)cn2)CC1.Cl (stereo unspecified) )
output: Insoluble
